# targetSystem: JAK2 (Homo sapiens (Human), UniProt O60674)
# Sequence (O60674 whole entry): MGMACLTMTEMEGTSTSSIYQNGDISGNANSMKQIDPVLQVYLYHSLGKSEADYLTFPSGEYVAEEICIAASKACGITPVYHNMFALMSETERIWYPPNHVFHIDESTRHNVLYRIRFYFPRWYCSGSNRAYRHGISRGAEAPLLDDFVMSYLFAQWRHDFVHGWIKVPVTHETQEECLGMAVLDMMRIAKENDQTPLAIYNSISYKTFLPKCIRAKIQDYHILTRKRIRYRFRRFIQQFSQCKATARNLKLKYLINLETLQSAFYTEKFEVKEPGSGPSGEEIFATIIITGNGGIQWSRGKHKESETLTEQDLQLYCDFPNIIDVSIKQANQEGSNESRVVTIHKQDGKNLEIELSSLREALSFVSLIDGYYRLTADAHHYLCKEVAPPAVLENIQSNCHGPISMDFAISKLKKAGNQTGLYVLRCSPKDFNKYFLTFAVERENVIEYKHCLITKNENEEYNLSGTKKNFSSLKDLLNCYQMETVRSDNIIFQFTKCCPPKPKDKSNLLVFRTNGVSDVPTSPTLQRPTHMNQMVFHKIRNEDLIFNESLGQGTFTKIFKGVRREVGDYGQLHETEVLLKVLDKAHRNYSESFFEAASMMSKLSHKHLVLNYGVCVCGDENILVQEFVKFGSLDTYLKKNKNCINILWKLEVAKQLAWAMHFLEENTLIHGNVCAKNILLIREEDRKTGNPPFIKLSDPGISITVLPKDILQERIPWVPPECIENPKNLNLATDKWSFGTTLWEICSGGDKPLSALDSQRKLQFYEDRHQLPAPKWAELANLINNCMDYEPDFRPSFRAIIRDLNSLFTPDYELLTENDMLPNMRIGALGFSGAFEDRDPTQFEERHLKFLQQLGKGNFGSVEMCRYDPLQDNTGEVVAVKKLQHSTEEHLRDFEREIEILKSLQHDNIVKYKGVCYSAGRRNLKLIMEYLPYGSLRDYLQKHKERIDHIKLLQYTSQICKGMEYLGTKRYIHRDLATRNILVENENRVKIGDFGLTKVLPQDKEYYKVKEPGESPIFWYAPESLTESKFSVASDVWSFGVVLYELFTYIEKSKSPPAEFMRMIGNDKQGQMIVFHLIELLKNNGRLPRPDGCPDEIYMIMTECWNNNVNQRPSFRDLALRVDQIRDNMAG
# assayOverview: Inhibition of JAK, luminescence kinase assay (ADP-Glo), JAK2
# Type: biochemical
# conditionDescription: purified recombinant JAK2; Table 2, same experimental conditions
reportedProperty: IC50
State the value with its unit after it.

Exercise: Please supply the value of reported IC50 for the item CS(=O)(=O)C1CN(Cc2ccc(-c3cccc4nc(NC(=O)C5CC5)nn34)cc2)C1 [Example 1]
Key: 498 nM

====

# targetSystem: JAK3 (Homo sapiens (Human))
# Sequence (P52333 whole entry): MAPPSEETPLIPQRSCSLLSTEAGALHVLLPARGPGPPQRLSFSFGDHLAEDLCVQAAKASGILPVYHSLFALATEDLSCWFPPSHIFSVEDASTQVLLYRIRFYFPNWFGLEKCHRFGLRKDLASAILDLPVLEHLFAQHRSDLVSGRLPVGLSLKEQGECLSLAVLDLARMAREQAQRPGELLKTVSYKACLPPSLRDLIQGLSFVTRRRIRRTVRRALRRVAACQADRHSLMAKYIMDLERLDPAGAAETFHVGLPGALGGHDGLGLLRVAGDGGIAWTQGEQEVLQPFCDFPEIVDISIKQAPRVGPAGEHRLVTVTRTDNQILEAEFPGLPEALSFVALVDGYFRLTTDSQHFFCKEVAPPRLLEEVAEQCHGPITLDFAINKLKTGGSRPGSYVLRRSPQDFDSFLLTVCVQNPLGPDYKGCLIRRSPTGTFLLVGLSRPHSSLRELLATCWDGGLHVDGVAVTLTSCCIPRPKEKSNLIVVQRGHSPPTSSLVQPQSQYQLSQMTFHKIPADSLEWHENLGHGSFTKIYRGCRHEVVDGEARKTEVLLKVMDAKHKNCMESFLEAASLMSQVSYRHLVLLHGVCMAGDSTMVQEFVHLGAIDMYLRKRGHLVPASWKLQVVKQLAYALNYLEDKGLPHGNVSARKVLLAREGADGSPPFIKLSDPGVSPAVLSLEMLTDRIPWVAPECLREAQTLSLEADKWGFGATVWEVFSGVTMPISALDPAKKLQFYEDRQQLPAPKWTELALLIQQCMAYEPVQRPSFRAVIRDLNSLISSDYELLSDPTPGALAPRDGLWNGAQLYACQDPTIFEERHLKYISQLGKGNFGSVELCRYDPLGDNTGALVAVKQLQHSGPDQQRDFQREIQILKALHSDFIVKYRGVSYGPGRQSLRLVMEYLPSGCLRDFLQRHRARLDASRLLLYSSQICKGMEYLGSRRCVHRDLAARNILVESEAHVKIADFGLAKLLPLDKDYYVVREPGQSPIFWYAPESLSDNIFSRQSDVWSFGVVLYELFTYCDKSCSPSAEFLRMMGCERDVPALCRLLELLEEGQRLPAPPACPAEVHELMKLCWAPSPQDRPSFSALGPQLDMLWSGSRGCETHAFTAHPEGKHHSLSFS
# assayOverview: Inhibition of JAK, luminescence kinase assay (ADP-Glo), JAK3
# Assay type: biochemical
# conditionDescription: purified recombinant JAK3; Table 1
pIC50: −log10 of the molar value.
reportedProperty: pIC50

Exercise: Please report pIC50 with JAK3 (Homo sapiens (Human)) for item `CS(=O)(=O)C1CN(Cc2ccc(-c3cccc4nc(N)nn34)cc2)C1` .
Key: 7.30 to 7.70

Exercise: Please report pIC50 with JAK3 (Homo sapiens (Human)) for item `CS(=O)(=O)C1CN(Cc2c(F)cc(-c3cccc4nc(NC(=O)C5CC5)nn34)cc2F)C1` .
Key: < 7.30

Exercise: Please report pIC50 with JAK3 (Homo sapiens (Human)) for item `CCS(=O)(=O)C1CN(Cc2ccc(-c3cccn4nc(NC(=O)C5CC5)nc34)cc2)C1` .
Key: < 7.30

Exercise: Please report pIC50 with JAK3 (Homo sapiens (Human)) for item `CC(C)C(=O)Nc1nc2c(-c3ccc(CN4CC(S(C)(=O)=O)C4)cc3)cccn2n1` .
Key: < 7.30

Exercise: Please report pIC50 with JAK3 (Homo sapiens (Human)) for item `O=C(Nc1nc2c(-c3ccc(CN4CC(S(=O)(=O)C5CC5)C4)cc3)cccn2n1)C1CC1` .
Key: < 7.30

Exercise: Please report pIC50 with JAK3 (Homo sapiens (Human)) for item `CS(=O)(=O)C1CN(Cc2ccc(-c3cccn4nc(N)nc34)cc2)C1` .
Key: 7.30 to 7.70

====

# targetSystem: JAK1 (Homo sapiens (Human))
# Sequence (P23458 whole entry): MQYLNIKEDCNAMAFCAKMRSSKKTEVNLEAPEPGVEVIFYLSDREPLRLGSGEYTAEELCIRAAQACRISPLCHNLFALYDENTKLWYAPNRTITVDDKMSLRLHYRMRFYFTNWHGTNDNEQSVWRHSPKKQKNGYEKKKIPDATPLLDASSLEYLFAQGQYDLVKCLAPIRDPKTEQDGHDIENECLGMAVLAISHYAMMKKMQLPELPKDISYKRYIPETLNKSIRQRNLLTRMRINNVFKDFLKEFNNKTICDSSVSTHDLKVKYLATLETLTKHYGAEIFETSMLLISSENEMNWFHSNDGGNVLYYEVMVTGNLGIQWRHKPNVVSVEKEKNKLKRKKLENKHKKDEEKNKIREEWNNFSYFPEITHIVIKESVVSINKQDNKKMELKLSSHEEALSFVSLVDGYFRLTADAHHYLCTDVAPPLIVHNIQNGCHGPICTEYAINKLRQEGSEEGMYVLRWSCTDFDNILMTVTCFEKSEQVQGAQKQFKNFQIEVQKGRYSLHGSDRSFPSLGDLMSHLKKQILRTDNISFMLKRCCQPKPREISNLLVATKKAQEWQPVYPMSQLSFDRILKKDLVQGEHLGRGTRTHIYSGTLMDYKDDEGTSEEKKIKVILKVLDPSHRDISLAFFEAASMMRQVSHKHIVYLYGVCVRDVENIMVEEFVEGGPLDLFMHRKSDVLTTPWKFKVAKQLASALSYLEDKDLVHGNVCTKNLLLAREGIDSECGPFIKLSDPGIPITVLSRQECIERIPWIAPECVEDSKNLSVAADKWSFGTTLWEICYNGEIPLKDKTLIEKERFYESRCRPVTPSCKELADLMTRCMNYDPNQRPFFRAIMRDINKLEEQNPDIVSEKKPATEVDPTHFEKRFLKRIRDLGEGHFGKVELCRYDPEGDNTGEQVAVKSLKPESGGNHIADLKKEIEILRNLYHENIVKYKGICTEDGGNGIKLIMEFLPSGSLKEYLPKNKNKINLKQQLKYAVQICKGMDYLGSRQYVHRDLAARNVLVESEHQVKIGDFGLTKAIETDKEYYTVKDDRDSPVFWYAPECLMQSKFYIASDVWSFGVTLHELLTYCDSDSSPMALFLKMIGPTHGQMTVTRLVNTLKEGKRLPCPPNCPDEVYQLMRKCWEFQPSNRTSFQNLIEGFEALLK
# assayOverview: Inhibition of JAK, luminescence kinase assay (ADP-Glo), JAK1
# Format: biochemical
# conditionDescription: purified recombinant JAK1; Table 2, same experimental conditions
# Experimental: The study of the effect of compounds on the activity of purified recombinant JAK was performed by studying the inhibitory activity of the compounds on JAK from the enzymatic level. The experimental principle is to use a luminescence kinase assay to detect the ADP content produced by the reaction of JAK with the substrate Poly (4:1 Glu, Tyr) peptide: after ADP is converted to ATP, ATP can act as a substrate for the Ultra-Glo luciferase catalytic reaction, producing an optical signal. […]
reportedProperty: pIC50
API: returns pIC50 as number; meaning -log10 of concentration in mol/L.

Exercise: Please report pIC50 with JAK1 (Homo sapiens (Human)) for item `CS(=O)(=O)C1CN(Cc2ccc(-c3cccc4nc(NC(=O)C5CC5)nn34)cc2)C1` .
Key: 7.32
